A collection of compounds and their measured Changes in Heart Rate
Tested on: unanesthetized spontaneously hypertensive rats
Assay: Heart rate determined simultaneously with blood pressure (sphygmometer connected to the pulse output)
Format: in vivo, rat
Conditions: 1 hr after administration; 10 mg/kg oral
Method: The anti-hypertensive activity of the compounds was determined by the tail cuff method using unanesthetized spontaneously hypertensive rats weighing 300 to 350 g (21 to 25 week old). In this experiment, the systolic blood pressure was determined by the bloodless method using a hemodynamometer. The heart rate was determined simultaneously using a sphygmometer connected to the pulse output. […]
Counter-ions that a name gives are not always drawn.
Parameter measured: Changes in Heart Rate

compound="NNc1nncc2ccccc12 [Hydralazine Hydrochloride, reference compound]" parameter_measured="Changes in Heart Rate" reported_result="65 Δ/min."
compound=CN1C[C@H](Cn2ccnc2-c2ccccc2)C[C@@H]2c3cccc4[nH]cc(c34)C[C@H]21 parameter_measured="Changes in Heart Rate" reported_result="-46 Δ/min."
compound=CN1C[C@H](Cn2ccnc2)C[C@@H]2c3cccc4[nH]cc(c34)C[C@H]21 parameter_measured="Changes in Heart Rate" reported_result="-39 Δ/min."
compound=CCc1nccn1C[C@@H]1C[C@@H]2c3cccc4[nH]cc(c34)C[C@H]2N(C)C1 parameter_measured="Changes in Heart Rate" reported_result="2 Δ/min."
compound=CN1CC(=O)N(C[C@@H]2C[C@@H]3c4cccc5[nH]cc(c45)C[C@H]3N(C)C2)C1=O parameter_measured="Changes in Heart Rate" reported_result="26 Δ/min."
compound=Cc1nccn1C[C@@H]1C[C@@H]2c3cccc4[nH]cc(c34)C[C@H]2N(C)C1 parameter_measured="Changes in Heart Rate" reported_result="-12 Δ/min."

----------
system: unanesthetized spontaneously hypertensive rats; assay: Heart rate determined simultaneously with blood pressure (sphygmometer connected to the pulse output); format: in vivo, rat; settings: 2 hrs after administration; 10 mg/kg oral
Parameter measured: Changes in Heart Rate

smiles_structure=CN1C[C@H](Cn2cncn2)C[C@@H]2c3cccc4[nH]cc(c34)C[C@H]21 reported_result="-30 Δ/min."
smiles_structure=CN1C[C@H](CN2C(=O)CCC2=O)C[C@@H]2c3cccc4[nH]cc(c34)C[C@H]21 reported_result="3 Δ/min."
smiles_structure=Cc1nccn1C[C@@H]1C[C@@H]2c3cccc4[nH]cc(c34)C[C@H]2N(C)C1 reported_result="-27 Δ/min."
smiles_structure=CN1C[C@H](Cn2ccnc2-c2ccccc2)C[C@@H]2c3cccc4[nH]cc(c34)C[C@H]21 reported_result="-49 Δ/min."
smiles_structure=CN1CC(=O)N(C[C@@H]2C[C@@H]3c4cccc5[nH]cc(c45)C[C@H]3N(C)C2)C1=O reported_result="1 Δ/min."
smiles_structure=CC(C)c1nccn1C[C@@H]1C[C@@H]2c3cccc4[nH]cc(c34)C[C@H]2N(C)C1 reported_result="-21 Δ/min."

----------
system: unanesthetized spontaneously hypertensive rats; test: Heart rate determined simultaneously with blood pressure (sphygmometer connected to the pulse output); type: in vivo, rat; details: 6 hrs after administration; 10 mg/kg oral
Structures can show the parent of a compound that is named as a salt.
Parameter measured: Changes in Heart Rate

molecule=CN1C[C@H](CN2C(=O)CCC2=O)C[C@@H]2c3cccc4[nH]cc(c34)C[C@H]21 reported_result="-40 Δ/min."
molecule=CN1C[C@H](CN2CCOC2=O)C[C@@H]2c3cccc4[nH]cc(c34)C[C@H]21 reported_result="-56 Δ/min."
molecule=CCc1nccn1C[C@@H]1C[C@@H]2c3cccc4[nH]cc(c34)C[C@H]2N(C)C1 reported_result="-11 Δ/min."
molecule="NNc1nncc2ccccc12 [Hydralazine Hydrochloride, reference compound]" reported_result="64 Δ/min."
molecule=CN1C[C@H](Cn2cncn2)C[C@@H]2c3cccc4[nH]cc(c34)C[C@H]21 reported_result="-21 Δ/min."
molecule=CC(C)c1nccn1C[C@@H]1C[C@@H]2c3cccc4[nH]cc(c34)C[C@H]2N(C)C1 reported_result="-46 Δ/min."
molecule="CCOC(=O)c1ncn(C[C@@H]2C[C@@H]3c4cccc5[nH]cc(c45)C[C@H]3N(C)C2)c1C [Example 15B]" reported_result="-11 Δ/min."
molecule=CN1C[C@H](Cn2ccnc2)C[C@@H]2c3cccc4[nH]cc(c34)C[C@H]21 reported_result="-58 Δ/min."

FYI, the data here is from patent US4713457A.
